Molecular target: GC-A (Rattus norvegicus)
Sequence (P18910 29-1057): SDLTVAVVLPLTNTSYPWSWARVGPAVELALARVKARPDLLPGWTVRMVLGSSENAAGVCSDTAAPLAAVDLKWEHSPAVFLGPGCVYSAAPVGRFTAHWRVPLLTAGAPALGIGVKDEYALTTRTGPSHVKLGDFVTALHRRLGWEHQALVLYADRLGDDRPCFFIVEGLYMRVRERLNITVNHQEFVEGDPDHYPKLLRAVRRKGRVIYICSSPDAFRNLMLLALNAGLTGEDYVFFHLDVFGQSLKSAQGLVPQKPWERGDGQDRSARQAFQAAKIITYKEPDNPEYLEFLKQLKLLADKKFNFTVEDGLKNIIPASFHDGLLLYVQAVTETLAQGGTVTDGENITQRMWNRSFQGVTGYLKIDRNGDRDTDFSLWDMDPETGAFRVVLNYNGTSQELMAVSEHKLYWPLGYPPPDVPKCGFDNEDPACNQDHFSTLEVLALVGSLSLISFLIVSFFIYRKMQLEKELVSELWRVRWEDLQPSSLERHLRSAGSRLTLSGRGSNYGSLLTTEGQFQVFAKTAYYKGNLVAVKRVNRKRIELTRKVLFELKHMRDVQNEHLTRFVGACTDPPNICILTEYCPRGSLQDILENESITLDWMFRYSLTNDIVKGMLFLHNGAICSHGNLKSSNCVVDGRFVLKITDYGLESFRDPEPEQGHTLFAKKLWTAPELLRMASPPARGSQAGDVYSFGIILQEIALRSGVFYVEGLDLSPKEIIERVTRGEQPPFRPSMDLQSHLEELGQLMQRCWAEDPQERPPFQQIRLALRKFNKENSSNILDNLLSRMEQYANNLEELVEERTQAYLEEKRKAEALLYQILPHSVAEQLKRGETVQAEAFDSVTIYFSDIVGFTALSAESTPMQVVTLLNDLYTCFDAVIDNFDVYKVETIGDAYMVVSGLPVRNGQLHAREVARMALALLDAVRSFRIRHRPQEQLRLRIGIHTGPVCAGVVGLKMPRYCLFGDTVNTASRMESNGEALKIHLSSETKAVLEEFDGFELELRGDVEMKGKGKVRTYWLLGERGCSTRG
Sequence (P01161 123-150 partner limits assumed): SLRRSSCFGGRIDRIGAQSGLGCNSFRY
Assay: GC assay
Assay type: biochemical
Settings: EC50 for activation, NP-stimulated, 0.3 mM GTP
pEC50: −log10 of the molar value.
Value kind: pEC50

1) Nc1ncnc2c1ncn2[C@@H]1O[C@H](COP(=O)(O)OP(=O)(O)OP(=O)(O)O)[C@@H](O)[C@H]1O [ATP, adenosine triphosphate]    4.42

###

Target: GC-B (Rattus norvegicus, UniProt P16067)
Sequence (P16067 17-1047): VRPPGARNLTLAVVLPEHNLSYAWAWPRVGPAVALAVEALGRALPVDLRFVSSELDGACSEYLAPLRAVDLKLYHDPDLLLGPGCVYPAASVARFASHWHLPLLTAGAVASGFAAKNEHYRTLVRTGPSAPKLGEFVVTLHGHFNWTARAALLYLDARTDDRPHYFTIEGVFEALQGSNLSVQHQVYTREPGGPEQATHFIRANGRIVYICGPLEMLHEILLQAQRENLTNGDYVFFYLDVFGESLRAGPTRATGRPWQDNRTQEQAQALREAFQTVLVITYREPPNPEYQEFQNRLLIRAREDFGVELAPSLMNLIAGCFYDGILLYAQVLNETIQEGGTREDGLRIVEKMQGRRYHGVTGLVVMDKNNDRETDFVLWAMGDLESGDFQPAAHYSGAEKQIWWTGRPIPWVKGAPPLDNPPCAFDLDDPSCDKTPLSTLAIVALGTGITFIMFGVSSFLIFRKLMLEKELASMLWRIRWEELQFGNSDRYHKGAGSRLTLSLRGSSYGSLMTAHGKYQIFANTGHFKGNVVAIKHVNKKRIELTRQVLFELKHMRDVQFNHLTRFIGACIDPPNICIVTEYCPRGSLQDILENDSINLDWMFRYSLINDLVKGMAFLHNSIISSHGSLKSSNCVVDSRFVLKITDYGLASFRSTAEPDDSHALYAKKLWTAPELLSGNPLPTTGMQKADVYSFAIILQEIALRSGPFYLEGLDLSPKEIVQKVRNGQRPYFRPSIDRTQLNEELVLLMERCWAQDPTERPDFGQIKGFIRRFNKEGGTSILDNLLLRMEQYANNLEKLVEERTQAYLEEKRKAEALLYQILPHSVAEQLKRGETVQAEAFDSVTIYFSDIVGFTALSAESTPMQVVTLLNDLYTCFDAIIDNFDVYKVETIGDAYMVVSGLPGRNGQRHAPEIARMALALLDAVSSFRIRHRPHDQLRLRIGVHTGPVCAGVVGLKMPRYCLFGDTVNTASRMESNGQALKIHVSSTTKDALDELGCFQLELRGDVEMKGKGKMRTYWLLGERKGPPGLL
Sequence (P55207 105-126 partner limits assumed): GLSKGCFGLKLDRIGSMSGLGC
Assay: GC assay
Format: biochemical
Settings: EC50 for activation, NP-stimulated, 0.1 mM GTP
Value kind: EC50 (µM)

1) Nc1ncnc2c1ncn2[C@@H]1O[C@H](COP(=O)(O)OP(=O)(O)OP(=O)(O)O)[C@@H](O)[C@H]1O [ATP, adenosine triphosphate]    40
